Exercise: state measured composite z-score for each of the compounds provided.
Test protocol: small-molecule microarray binders of probe aShh, primary screen, biochemical, biotinylated probe, 635/667 nm fluorescence (AID 1114);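 note: probe is biotin-labelled aShh protein from a stem cell growth factor screen; measures binding of labelled protein to compounds printed on the slide; score merges feature fluorescence at 667 nm with signal-to-noise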
Condition context: higher = more signal

# annotated cases, reported composite z-score shown
INSERT INTO results (molecule, readout, test_result) VALUES
  ('COc1ccc([Si](C)(C)[C@@H]2[C@@H](CC(=O)N3CCC[C@H]3CO)O[C@]3(C(=O)N(Cc4ccc(N5C(=O)c6cccc7cccc5c67)cc4)c4ccccc43)[C@H]2C)cc1', 'composite z-score', 0.14),
  ('C=CC[C@@]12N=C(c3ccc(OCCCO)cc3)O[C@@H]1c1ccccc1N(CCS(=O)(=O)c1ccccc1)C2=O', 'composite z-score', 0.147),
  ('COCCCNC(=O)[C@@]1(Sc2ccc(C)cc2)CC(=O)N(C2Cc3ccccc3C2)[C@@H]1c1ccc(CO)cc1I', 'composite z-score', -0.536),
  ('NCCCCCNC(=O)[C@@H]1C[C@@H]2C(=O)N[C@@H](CCCCN)C(=O)N2[C@@H]1c1cccc(OCCO)c1', 'composite z-score', 0.241),
  ('CC(C)CN1C(=O)[C@@]2(Cc3ccccc31)c1ccccc1C(=O)N(Cc1ccccc1C(F)(F)F)[C@H]2c1ccc(CO)cc1', 'composite z-score', -0.138);

Now let's try a different one.
// composite z-score lookup, key: COC(=O)c1c(CC[C@@H](CO)NC(=O)N[C@H](Cn2cc(-c3ccccc3C)nn2)C(C)C)oc(C(C)=O)c1C(=O)OC -0.0553
